Values compiled from the supplement of paper PMC10724198.

Tested on: Saccharomyces cerevisiae
assay info: protein stability index of tFT-peptide fusion (C-terminal peptide) (PSI (0-1 scale)); higher = more stable (slower turnover);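 note: PSI is a weighted mean of sequencing reads over stability bins, variants kept only with over 10 reads, mCherry proximal and sfGFP distal, peptide attached via GGGS linker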
recorded conditions: genetic background: wild type; temperature: 30 C
measured endpoint: protein stability index

seq string: ATMGRKSLRDRF
measured: 0.679
//
seq string: TYLGISNLHPAI
measured: 0.709
//
seq string: RKNDSKKNCVKE
measured: 0.705
//
seq string: PPPPLPPPPVLT
measured: 0.7
//
seq string: PPSLAPPPTSRP
measured: 0.679
//
seq string: GGPLDASICRSS
measured: 0.694
//
seq string: PPSPTPPLPSCP
measured: 0.702
//
seq string: KSKTENKEKATK
measured: 0.716

---

Tested on: Saccharomyces cerevisiae
assay info: protein stability index of tFT-peptide fusion (C-terminal peptide) (PSI (0-1 scale)); higher = more stable (slower turnover)
recorded conditions: genetic background: das1 deletion; temperature: 30 C
protein stability index for assorted sequences

seq string: FFVFMAKLRTCN
protein stability index: 0.444
--
seq string: AFFCTLCLFLVS
protein stability index: 0.36
--
seq string: SRVHHLWAILVP
protein stability index: 0.238
--
seq string: WGRGYRWRIWDV
protein stability index: 0.657
--
seq string: MCVCLLVRVVPS
protein stability index: 0.211
--
seq string: SILFSYFCFFLL
protein stability index: 0.441
--
seq string: FCVGVVIQLSGV
protein stability index: 0.311
--
seq string: DSPRGRCVRLLV
protein stability index: 0.646
--
seq string: FLTLQSPIQYIV
protein stability index: 0.646
--
seq string: RRTTIFDTKEPP
protein stability index: 0.523
--
seq string: CGLGKVLGWRWV
protein stability index: 0.64
--
seq string: YFNGLLPLVLVF
protein stability index: 0.074
--
seq string: RWRLWVGWWVVG
protein stability index: 0.456
--
seq string: LPPPTPRSVLLN
protein stability index: 0.672
--
seq string: LMLIPRLLVGAH
protein stability index: 0.184
--
seq string: GLCSGTGARWLV
protein stability index: 0.636
--
seq string: LLRLCGFPLGVG
protein stability index: 0.488
--
seq string: PSDVLERVIRLL
protein stability index: 0.647
--
seq string: YRGFFIGKLMLV
protein stability index: 0.482
--
seq string: VWWTLWRVHMLG
protein stability index: 0.592
--
seq string: DFPGDIILRLIA
protein stability index: 0.635
--
seq string: LPSRWVPLPTPA
protein stability index: 0.407
--
seq string: CFYVGFLGYFVF
protein stability index: 0.357
--
seq string: GYRYMWLWRLSA
protein stability index: 0.665
--
seq string: FSCWLFMLCVFL
protein stability index: 0.401
--
seq string: LFLLFLCLSSLF
protein stability index: 0.487
--
seq string: IWIHSVGVECTS
protein stability index: 0.359
--
seq string: FSLWSRRSITVY
protein stability index: 0.104
--
seq string: NFTDMGRSLYIN
protein stability index: 0.663
--
seq string: CVPGPRWWYHSA
protein stability index: 0.685

---

protein stability index for assorted sequences
Tested on: Saccharomyces cerevisiae
assay info: protein stability index of tFT-peptide fusion (C-terminal peptide) (PSI (0-1 scale)); higher = more stable (slower turnover)
recorded conditions: genetic background: wild type; temperature: 30 C
measured endpoint: protein stability index

seq string: PPTFLPLPSSPP
measured: 0.651
--
seq string: SRAYDKSRNISI
measured: 0.731
--
seq string: LVFCPCQSVVSL
measured: 0.59
--
seq string: AELAMGVSDMYS
measured: 0.678
--
seq string: STIIYFLTYSDK
measured: 0.634
--
seq string: SIHITGTLSRTA
measured: 0.751
--
seq string: SYGWSQGPLSCW
measured: 0.767
--
seq string: GLDHRLALLYPS
measured: 0.736
--
seq string: FSLWSRRSITVY
measured: 0.198
--
seq string: MLGHKIILHTYI
measured: 0.547
--
seq string: TIKGRLNVRKIE
measured: 0.552
--
seq string: MKRIRKTKIKAR
measured: 0.624
--
seq string: LFPGVHRVEDRA
measured: 0.675
--
seq string: GVPALLVGIDLV
measured: 0.668
--
seq string: LDLELNRRCRTS
measured: 0.675
--
seq string: IVRTKLHPIGTS
measured: 0.655
